Give measured inhibition (INH) for each item. Keep answers brief.
System: Enterococcus faecalis
Test: Antibacterial activity against VanB-resistant Enterococcus faecalis ATCC 51299 assessed as inhibition of bacterial growth in BHIG medium incubated for 24 hrs by resazurin assay
Assay type: functional
Report the figure in % without appending any unit label.

Ask | Give the value of inhibition (INH) reported for the following: `CCCCCCSSCCNC(=O)[C@H]1NC(=O)[C@H]2NC(=O)[C@H](NC(=O)[C@@H]3NC(=O)[C@H](CC(N)=O)NC(=O)[C@H](NC(=O)[C@@H](CC(C)C)NC)[C@H](O)c4ccc(c(Cl)c4)Oc4cc3cc(c4O[C@@H]3O[C@H](CO)[C@@H](O)[C@H](O)[C@H]3O[C@H]3C[C@](C)(N)[C@H](O)[C@H](C)O3)Oc3ccc(cc3Cl)[C@H]2O)c2ccc(O)c(c2)-c2c(O)cc(O)cc21`
Reply | 100

Ask | Give the value of inhibition (INH) reported for the following: `CN[C@H](CC(C)C)C(=O)N[C@H]1C(=O)N[C@@H](CC(N)=O)C(=O)N[C@H]2C(=O)N[C@H]3C(=O)N[C@H](C(=O)N[C@H](C(=O)NCCS)c4cc(O)cc(O)c4-c4cc3ccc4O)[C@H](O)c3ccc(c(Cl)c3)Oc3cc2cc(c3O[C@@H]2O[C@H](CO)[C@@H](O)[C@H](O)[C@H]2O[C@H]2C[C@](C)(N)[C@H](O)[C@H](C)O2)Oc2ccc(cc2Cl)[C@H]1O`
Reply | 100

Ask | Give the value of inhibition (INH) reported for the following: CN[C@H](CC(C)C)C(=O)N[C@H]1C(=O)N[C@@H](CC(N)=O)C(=O)N[C@H]2C(=O)N[C@H]3C(=O)N[C@H](C(=O)N[C@H](C(=O)NCCOCCNC(=O)CCCCC4CCSS4)c4cc(O)cc(O)c4-c4cc3ccc4O)[C@H](O)c3ccc(c(Cl)c3)Oc3cc2cc(c3O[C@@H]2O[C@H](CO)[C@@H](O)[C@H](O)[C@H]2O[C@H]2C[C@](C)(N)[C@H](O)[C@H](C)O2)Oc2ccc(cc2Cl)[C@H]1O (stereo partly drawn)
Reply | 100

Ask | Give the value of inhibition (INH) reported for the following: `CN[C@H](CC(C)C)C(=O)N[C@H]1C(=O)N[C@@H](CC(N)=O)C(=O)N[C@H]2C(=O)N[C@H]3C(=O)N[C@H](C(=O)N[C@H](C(=O)NCCSSCCNC(=O)CCS)c4cc(O)cc(O)c4-c4cc3ccc4O)[C@H](O)c3ccc(c(Cl)c3)Oc3cc2cc(c3O[C@@H]2O[C@H](CO)[C@@H](O)[C@H](O)[C@H]2O[C@H]2C[C@](C)(N)[C@H](O)[C@H](C)O2)Oc2ccc(cc2Cl)[C@H]1O`
Reply | 100

Ask | Give the value of inhibition (INH) reported for the following: `CN[C@H](CC(C)C)C(=O)N[C@H]1C(=O)N[C@@H](CC(N)=O)C(=O)N[C@H]2C(=O)N[C@H]3C(=O)N[C@H](C(=O)N[C@H](C(=O)NCCSSCCN)c4cc(O)cc(O)c4-c4cc3ccc4O)[C@H](O)c3ccc(c(Cl)c3)Oc3cc2cc(c3O[C@@H]2O[C@H](CO)[C@@H](O)[C@H](O)[C@H]2O[C@H]2C[C@](C)(N)[C@H](O)[C@H](C)O2)Oc2ccc(cc2Cl)[C@H]1O`
Reply | 98

Ask | Give the value of inhibition (INH) reported for the following: `CN[C@H](CC(C)C)C(=O)N[C@H]1C(=O)N[C@@H](CC(N)=O)C(=O)N[C@H]2C(=O)N[C@H]3C(=O)N[C@H](C(=O)N[C@H](C(=O)NCCSSc4ccccn4)c4cc(O)cc(O)c4-c4cc3ccc4O)[C@H](O)c3ccc(c(Cl)c3)Oc3cc2cc(c3O[C@@H]2O[C@H](CO)[C@@H](O)[C@H](O)[C@H]2O[C@H]2C[C@](C)(N)[C@H](O)[C@H](C)O2)Oc2ccc(cc2Cl)[C@H]1O`
Reply | 100

Ask | Give the value of inhibition (INH) reported for the following: `CN[C@H](CC(C)C)C(=O)N[C@H]1C(=O)N[C@@H](CC(N)=O)C(=O)N[C@H]2C(=O)N[C@H]3C(=O)N[C@H](C(=O)N[C@H](C(=O)NCCSSCCCCC[N+](C)(C)C)c4cc(O)cc(O)c4-c4cc3ccc4O)[C@H](O)c3ccc(c(Cl)c3)Oc3cc2cc(c3O[C@@H]2O[C@H](CO)[C@@H](O)[C@H](O)[C@H]2O[C@H]2C[C@](C)(N)[C@H](O)[C@H](C)O2)Oc2ccc(cc2Cl)[C@H]1O`
Reply | 97

Ask | Give the value of inhibition (INH) reported for the following: `CN[C@H](CC(C)C)C(=O)N[C@H]1C(=O)N[C@@H](CC(N)=O)C(=O)N[C@H]2C(=O)N[C@H]3C(=O)N[C@H](C(=O)N[C@H](C(=O)O)c4cc(O)cc(O)c4-c4cc3ccc4O)[C@H](O)c3ccc(c(Cl)c3)Oc3cc2cc(c3O[C@@H]2O[C@H](CO)[C@@H](O)[C@H](O)[C@H]2O[C@H]2C[C@](C)(N)[C@H](O)[C@H](C)O2)Oc2ccc(cc2Cl)[C@H]1O`
Reply | 100
